- MEASUREMENT TARGET: EGFR-TK (Homo sapiens, UniProt P00533)
- Sequence (P00533 25-1210): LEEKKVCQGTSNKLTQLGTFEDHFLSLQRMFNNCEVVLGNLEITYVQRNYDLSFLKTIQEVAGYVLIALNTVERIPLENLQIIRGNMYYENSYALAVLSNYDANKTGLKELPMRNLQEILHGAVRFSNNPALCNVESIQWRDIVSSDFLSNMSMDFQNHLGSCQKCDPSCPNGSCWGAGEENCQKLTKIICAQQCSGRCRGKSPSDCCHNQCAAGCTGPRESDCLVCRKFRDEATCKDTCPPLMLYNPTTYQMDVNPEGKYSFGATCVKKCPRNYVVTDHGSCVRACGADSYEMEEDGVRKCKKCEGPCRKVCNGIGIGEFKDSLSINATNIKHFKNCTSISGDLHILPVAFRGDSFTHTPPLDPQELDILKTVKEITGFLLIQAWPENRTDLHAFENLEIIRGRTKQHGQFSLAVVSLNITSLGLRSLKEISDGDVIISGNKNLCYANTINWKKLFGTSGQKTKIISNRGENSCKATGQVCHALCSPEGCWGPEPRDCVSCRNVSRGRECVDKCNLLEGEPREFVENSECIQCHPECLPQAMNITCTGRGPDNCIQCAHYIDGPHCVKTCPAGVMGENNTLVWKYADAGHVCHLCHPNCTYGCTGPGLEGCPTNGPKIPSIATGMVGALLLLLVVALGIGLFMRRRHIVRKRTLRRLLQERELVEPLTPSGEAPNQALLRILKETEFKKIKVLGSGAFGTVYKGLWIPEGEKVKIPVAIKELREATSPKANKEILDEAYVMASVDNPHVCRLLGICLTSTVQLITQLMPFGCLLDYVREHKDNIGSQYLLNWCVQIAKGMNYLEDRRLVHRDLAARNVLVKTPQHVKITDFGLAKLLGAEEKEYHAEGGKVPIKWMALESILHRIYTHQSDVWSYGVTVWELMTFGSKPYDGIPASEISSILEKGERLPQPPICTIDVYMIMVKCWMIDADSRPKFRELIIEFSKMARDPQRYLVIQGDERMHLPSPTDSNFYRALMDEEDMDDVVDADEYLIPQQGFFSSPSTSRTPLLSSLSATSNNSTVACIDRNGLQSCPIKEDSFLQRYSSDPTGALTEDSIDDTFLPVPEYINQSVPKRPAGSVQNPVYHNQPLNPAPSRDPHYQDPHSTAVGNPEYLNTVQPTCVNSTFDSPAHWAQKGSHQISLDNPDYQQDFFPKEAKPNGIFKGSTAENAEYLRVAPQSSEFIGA
- EXPERIMENT SUMMARY: biochemical
- EXPERIMENTAL CONTEXT: apparent IC50 average (IC50app), EGFR-TK autophosphorylation, average of 4 independent dose-response curves (n=4), spread ±0.016; 3 μM ATP
MEASURED PROPERTY: pIC50
Please note pIC50 is a logarithmic value: minus log10 of concentration in mol/L. Answer with that number alone.

Query block: Which pIC50 is reported with EGFR-TK (Homo sapiens, UniProt P00533) for this entry: C=CC(=O)Nc1ccc2ncnc(Nc3cc(Cl)c(Cl)cc3F)c2c1 [Compound 3] ?
Result block: 10.38

* * *

- MEASUREMENT TARGET: EGFR-TK (Homo sapiens, UniProt P00533)
- EXPERIMENT SUMMARY: biochemical
- EXPERIMENTAL CONTEXT: IC50app of an exemplary dose-response autophosphorylation inhibition curve, single exemplary curve (FIG. 1 / FIG. 5), r2 0.995; 3 μM ATP
MEASURED PROPERTY: pIC50
Answer as the number alone; pIC50 is minus log10 of concentration in mol/L.

Query block: // query pIC50 value for entry `C=CC(=O)Nc1ccc2ncnc(Nc3cc(Cl)c(Cl)cc3F)c2c1`
Result block: 10.29

Each recorded value in this set is attributed to patent US7172749B2.
